Please provide measured CC50 at 48 h for the entries that follow.
# testProtocol: in vitro

### Prompt Quick one: CC50 at 48 h of O=C(O[C@@H]1Cc2c(O)cc(O)cc2O[C@@H]1c1ccc(O)c(O)c1)c1cc(O)c(O)c(O)c1 [compound 5, epicatechin-3-O-gallate] ?
### Response 175 µM

### Prompt Quick one: CC50 at 48 h of Oc1cc(O)c2c(c1)O[C@H](c1ccc(O)c(O)c1)[C@@H](O)C2 [compound 1, (+)-catechin monohydrate] ?
### Response > 200 µM

### Prompt Quick one: CC50 at 48 h of Oc1cc(O)c2c(c1)O[C@H](c1ccc(O)c(O)c1)[C@H](O)C2 [compound 2, (−)-epicatechin] ?
### Response > 200 µM

### Prompt Quick one: CC50 at 48 h of O=c1oc2c(O)c(O)cc3c(=O)oc4c(O)c(O)cc1c4c23 [compound 15, ellagic acid, reference compound] ?
### Response > 200 µM

### Prompt Quick one: CC50 at 48 h of O=C(O)c1cc(O)c(O)c(O)c1 [compound 17, gallic acid monohydrate, reference compound] ?
### Response 197 µM

### Prompt Quick one: CC50 at 48 h of Oc1cc(O)c2c(c1)O[C@H](c1cc(O)c(O)c(O)c1)[C@@H](O)C2 [compound 3, gallocatechin] ?
### Response > 200 µM

### Prompt Quick one: CC50 at 48 h of O=C(OC[C@H]1O[C@@H](OC(=O)c2cc(O)c(O)c(O)c2)[C@H](OC(=O)c2cc(O)c(O)c(O)c2)[C@@H](OC(=O)c2cc(O)c(O)c(O)c2)[C@@H]1OC(=O)c1cc(O)c(O)c(O)c1)c1cc(O)c(O)c(O)c1 [compound 12, 1,2,3,4,6-penta-O-galloyl-β-D-glucose, reference compound] ?
### Response 83 µM

### Prompt Quick one: CC50 at 48 h of Oc1cc(O)c2c(c1)O[C@H](c1cc(O)c(O)c(O)c1)[C@H](O)C2 [compound 4, epigallocatechin] ?
### Response > 200 µM

### Prompt Quick one: CC50 at 48 h of O=C(/C=C/c1ccc(O)c(O)c1)O[C@H](Cc1ccc(O)c(O)c1)C(=O)O [compound 16, rosmarinic acid, reference compound] ?
### Response > 200 µM

* * *

# Test system: MDCK II cells
# testProtocol: cells
# assaySetup: Canis lupus familiaris, 48 h, read-out: cell vitality
reportedMetric: viability at 20 µM (%)
Use % as the unit, but write only the number.

### Prompt Quick one: viability at 20 µM of Oc1cc(O)c2c(c1)O[C@H](c1cc(O)c(O)c(O)c1)[C@H](O)C2 [compound 4, epigallocatechin] ?
### Response 106

### Prompt Quick one: viability at 20 µM of O=c1oc2c(O)c(O)cc3c(=O)oc4c(O)c(O)cc1c4c23 [compound 15, ellagic acid, reference compound] ?
### Response 110

### Prompt Quick one: viability at 20 µM of O=C(O)c1cc(O)c(O)c(O)c1 [compound 17, gallic acid monohydrate, reference compound] ?
### Response 107

### Prompt Quick one: viability at 20 µM of O=C(/C=C/c1ccc(O)c(O)c1)O[C@H](Cc1ccc(O)c(O)c1)C(=O)O [compound 16, rosmarinic acid, reference compound] ?
### Response 103

### Prompt Quick one: viability at 20 µM of O=C(OC[C@H]1O[C@@H](OC(=O)c2cc(O)c(O)c(O)c2)[C@H](OC(=O)c2cc(O)c(O)c(O)c2)[C@@H](OC(=O)c2cc(O)c(O)c(O)c2)[C@@H]1OC(=O)c1cc(O)c(O)c(O)c1)c1cc(O)c(O)c(O)c1 [compound 12, 1,2,3,4,6-penta-O-galloyl-β-D-glucose, reference compound] ?
### Response 57

### Prompt Quick one: viability at 20 µM of Oc1cc(O)c2c(c1)O[C@H](c1ccc(O)c(O)c1)[C@@H](O)C2 [compound 1, (+)-catechin monohydrate] ?
### Response 102

* * *

# Tested on: IAV(H1N1)pdm09 isolate I1
# testProtocol: microbe, parasite or virus in culture
# Assay type: cell-based, influenza A virus
# assaySetup: Influenza A virus, H1N1
pIC50: −log10 of the molar value.
Please provide measured pIC50 for the entries that follow.

### Prompt For IAV(H1N1)pdm09 isolate I1, provide pIC50 of Oc1cc(O)c2c(c1)O[C@H](c1cc(O)c(O)c(O)c1)[C@H](O)C2 [compound 4, epigallocatechin] please.
### Response < 3.70

### Prompt For IAV(H1N1)pdm09 isolate I1, provide pIC50 of O=C(O[C@@H]1Cc2c(O)cc(O)cc2O[C@@H]1c1cc(O)c(O)c(O)c1)c1cc(O)c(O)c(O)c1 [compound 6, reference compound] please.
### Response ≥ 4.92

### Prompt For IAV(H1N1)pdm09 isolate I1, provide pIC50 of O=C1O[C@H]2[C@@H]3OC(=O)c4cc(O)c(O)c(O)c4-c4c(cc(O)c(O)c4O)C(=O)OC[C@H]2O[C@@H](OC(=O)c2cc(O)c(O)c(O)c2)[C@@H]3OC(=O)c2cc(O)c(O)c3c2[C@@H]2C1=CC(=O)[C@](O)(O3)C2(O)O [compound 13, geraniin, reference compound] please.
### Response ≥ 3.41

### Prompt For IAV(H1N1)pdm09 isolate I1, provide pIC50 of Oc1cc(O)c2c(c1)O[C@H](c1ccc(O)c(O)c1)[C@H](O)C2 [compound 2, (−)-epicatechin] please.
### Response < 3.70

### Prompt For IAV(H1N1)pdm09 isolate I1, provide pIC50 of Oc1cc(O)c2c(c1)O[C@H](c1ccc(O)c(O)c1)[C@H](O)[C@H]2c1c(O)cc(O)c2c1O[C@H](c1ccc(O)c(O)c1)[C@H](O)C2 [compound 7, epicatechin-(4β→8)-epicatechin] please.
### Response < 3.70

* * *

Please provide measured inhibition at 2 µM for the entries that follow.
# System: IAV(H1N1)pdm09 isolate I1
# testProtocol: microbe, parasite or virus in culture
# Assay type: cell-based, influenza A virus
# assaySetup: Influenza A virus, H1N1, 48 h; 2 µM; read-out: anti-IAV activity
Use % as the unit, but write only the number.

### Prompt Quick one: inhibition at 2 µM of O=C(O[C@@H]1O[C@@H]2COC(=O)c3cc(O)c(O)c(O)c3-c3c(cc(O)c(O)c3O)C(=O)O[C@H]([C@H]1O)[C@@H]2O)c1cc(O)c(O)c(O)c1 [compound 14, corilagin, reference compound] ?
### Response 0

### Prompt Quick one: inhibition at 2 µM of O=C(OC[C@H]1O[C@@H](OC(=O)c2cc(O)c(O)c(O)c2)[C@H](OC(=O)c2cc(O)c(O)c(O)c2)[C@@H](OC(=O)c2cc(O)c(O)c(O)c2)[C@@H]1OC(=O)c1cc(O)c(O)c(O)c1)c1cc(O)c(O)c(O)c1 [compound 12, 1,2,3,4,6-penta-O-galloyl-β-D-glucose, reference compound] ?
### Response 3

### Prompt Quick one: inhibition at 2 µM of O=C(O)c1cc(O)c(O)c(O)c1 [compound 17, gallic acid monohydrate, reference compound] ?
### Response 0

### Prompt Quick one: inhibition at 2 µM of O=C(O[C@@H]1Cc2c(O)cc(O)cc2O[C@@H]1c1ccc(O)c(O)c1)c1cc(O)c(O)c(O)c1 [compound 5, epicatechin-3-O-gallate] ?
### Response 0

### Prompt Quick one: inhibition at 2 µM of Oc1cc(O)c2c(c1)O[C@H](c1ccc(O)c(O)c1)[C@H](O)[C@H]2c1c(O)cc2c(c1O)C[C@@H](O)[C@@H](c1ccc(O)c(O)c1)O2 [compound 9, epicatechin-(4β→6)-epicatechin] ?
### Response 0

### Prompt Quick one: inhibition at 2 µM of Oc1cc(O)c2c(c1)O[C@H](c1cc(O)c(O)c(O)c1)[C@H](O)C2 [compound 4, epigallocatechin] ?
### Response 0

### Prompt Quick one: inhibition at 2 µM of `Oc1cc(O)c2c(c1)O[C@H](c1ccc(O)c(O)c1)[C@H](O)[C@H]2c1c(O)cc(O)c2c1O[C@H](c1ccc(O)c(O)c1)[C@H](O)[C@H]2c1c(O)cc(O)c2c1O[C@H](c1ccc(O)c(O)c1)[C@H](O)[C@H]2c1c(O)cc(O)c2c1O[C@H](c1ccc(O)c(O)c1)[C@H](O)C2` ?
### Response 0

### Prompt Quick one: inhibition at 2 µM of `Oc1cc(O)c2c(c1)O[C@H](c1ccc(O)c(O)c1)[C@H](O)[C@H]2c1c(O)cc(O)c2c1O[C@H](c1ccc(O)c(O)c1)[C@H](O)[C@H]2c1c(O)cc(O)c2c1O[C@H](c1ccc(O)c(O)c1)[C@H](O)C2` ?
### Response 0

### Prompt Quick one: inhibition at 2 µM of O=C(O[C@@H]1Cc2c(O)cc(O)cc2O[C@@H]1c1cc(O)c(O)c(O)c1)c1cc(O)c(O)c(O)c1 [compound 6, reference compound] ?
### Response 1

### Prompt Quick one: inhibition at 2 µM of Oc1cccc(O)c1O [compound 18, pyrogallol, reference compound] ?
### Response 0

### Prompt Quick one: inhibition at 2 µM of O=C1O[C@H]2[C@@H]3OC(=O)c4cc(O)c(O)c(O)c4-c4c(cc(O)c(O)c4O)C(=O)OC[C@H]2O[C@@H](OC(=O)c2cc(O)c(O)c(O)c2)[C@@H]3OC(=O)c2cc(O)c(O)c3c2[C@@H]2C1=CC(=O)[C@](O)(O3)C2(O)O [compound 13, geraniin, reference compound] ?
### Response 0
